B1: library; a variant is named by its letters at N, in order (parent)
chain: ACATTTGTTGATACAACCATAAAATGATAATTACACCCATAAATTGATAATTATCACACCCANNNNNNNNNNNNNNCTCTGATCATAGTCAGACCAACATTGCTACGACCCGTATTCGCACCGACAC

- Variants of: B1
- assay explanation: relative integration efficiency (T-LR orientation) vs wild-type transposon end (log2 (normalized fold change)); transposon end mutated: right end (5 bp flank + 75 bp right end); higher = more efficient transposition
- condition info: with VchCAST RNA-guided transposition machinery (E. coli BL21(DE3) host, lacZ target)
Known relative integration efficiency (log2) of a selection of variants

[
  {
    "sequence change": "TAAAAACTTATTGC",
    "relative integration efficiency (log2)": 2.34
  },
  {
    "sequence change": "ATTTAACTATAACG A35T",
    "relative integration efficiency (log2)": 2.07
  },
  {
    "sequence change": "ATTTAACTATAACG T25A",
    "relative integration efficiency (log2)": 2.26
  },
  {
    "sequence change": "TAAATGTATATTGC",
    "relative integration efficiency (log2)": 2.42
  },
  {
    "sequence change": "TAAATTGATATTGC A50G",
    "relative integration efficiency (log2)": 0.0313
  },
  {
    "sequence change": "ATTTAACTATAACG C36G",
    "relative integration efficiency (log2)": 1.95
  },
  {
    "sequence change": "TAAATTGATATTTC",
    "relative integration efficiency (log2)": -0.13
  },
  {
    "sequence change": "ATTTAACTATAACG A29T",
    "relative integration efficiency (log2)": 2.6
  },
  {
    "sequence change": "ATTTAACTATAACG G46T",
    "relative integration efficiency (log2)": 1.87
  },
  {
    "sequence change": "TAAATTGATATTGC G26A",
    "relative integration efficiency (log2)": -0.268
  },
  {
    "sequence change": "TAAATTGATATTGC A29C",
    "relative integration efficiency (log2)": -0.254
  },
  {
    "sequence change": "TAAATTGATATTGC T32A",
    "relative integration efficiency (log2)": 0.96
  },
  {
    "sequence change": "TACCTTGATATTGC",
    "relative integration efficiency (log2)": 3.9
  },
  {
    "sequence change": "ATTTTTGATATTGC",
    "relative integration efficiency (log2)": 1.64
  },
  {
    "sequence change": "TAAATTGATATTGC A23C",
    "relative integration efficiency (log2)": 0.198
  },
  {
    "sequence change": "TAAATTGATAATGC",
    "relative integration efficiency (log2)": 0.354
  },
  {
    "sequence change": "TAAATTGATATTGC A30G",
    "relative integration efficiency (log2)": -0.2
  }
]

src = the supplement of paper PMC10201428
